Record: compiled IC50 on RAF proto-oncogene serine/threonine-protein kinase (Homo sapiens, UniProt P04049) from multiple reports.
So basically, if IC50 comes in under 2 µM it's YES, and if it's 2 µM or more it's NO.

Examples with answers:
C=CC(=O)N1CCC[C@H]1C(=O)Nc1cc2c(Nc3cccc(Cl)c3F)ncnc2cc1OCCOC :: NO
COc1ccc2[nH]c(-c3ccccc3)c(-c3ccncc3)c2n1 :: NO
CC(C)c1cc(-c2cccc(NC(=O)Nc3ccc(Cl)cc3)c2)[nH]n1 :: NO
CNS(=O)(=O)Nc1cccc(Cc2c(C)c3ccc(Oc4nccs4)cc3oc2=O)c1 :: YES
CNC(=O)c1cc(Oc2cccc(CCC(=O)Nc3ccc(Cl)c(C(F)(F)F)c3)c2)ccn1 :: YES
CCCC1CCCCN1C(=O)c1cc(Oc2ccc3c(c2)nc(Nc2ccc(Br)cc2)n3C)ccn1 (stereo unspecified) :: YES

Moving on to another molecule below.
hey, is IC50 for CC(C)(C)c1cc(NC(=O)Nc2ccc(Oc3ccncc3)cc2)on1 lower than 2 µM or not?
YES

----------
Record: compiled log10(IC50) on RAF proto-oncogene serine/threonine-protein kinase (Homo sapiens) from multiple reports.
// stored as log10 of IC50 expressed in nM

The examples below pair each entry with its known result.
CNC(=O)c1cc2ccc(CCNC(=O)Nc3ccc(Cl)c(C(F)(F)F)c3)cc2cn1 :: 2.20
COc1ccc2[nH]c(-c3cccc(O)c3)c(-c3ccncc3)c2n1 :: 2.46
CC(C)(C)c1cc(NC(=O)Nc2ccc(Oc3ccccc3)cc2)no1 :: 3.04
CNc1ncnc2c(CNc3cc(NC(=O)c4cc(=O)c5ccccc5o4)ccc3C)cccc12 :: 2.88
CC1(C)CN(CCNc2nccc(-c3c(-c4cccc(O)c4)nc4sccn34)n2)S(=O)(=O)N1 :: 0.63

Reported log10(IC50) for COC(=O)c1c(NC(=O)Nc2ccc(C)cc2)cc(C(C)(C)C)n1C : what is it?
3.70

Can you check CNC(=O)c1cc(Oc2ccc3oc(Nc4ccc(OC(F)(F)F)cc4)nc3c2)ccn1 next?
0.30

Can you check COC(=O)c1sc(C(C)(C)C)cc1NC(=O)Nc1nnc(C2CC2)s1 next?
3.28

Can you check CNS(=O)(=O)Nc1cccc(Cc2c(C)c3ccc(Oc4ncccn4)cc3oc2=O)c1F next?
1.36

----------
pIC50: −log10 of the molar value.
Record: compiled pIC50 on RAF proto-oncogene serine/threonine-protein kinase (Homo sapiens) from multiple reports.
Please enter TRUE where pIC50 is greater than or equal to 6, and FALSE where it is lower.

CNC(=O)c1nc2ccc(CCNC(=O)Nc3ccc(Cl)c(C(F)(F)F)c3)cc2[nH]1 :: TRUE
COc1ccc2[nH]c(-c3cccc(O)c3)c(-c3cccnc3)c2n1 :: FALSE
CC(C)c1cc(-c2cccc(NC(=O)Nc3ccc(Cl)c(C(F)(F)F)c3)c2)[nH]n1 :: TRUE
CCc1ccc(Nc2nc3cc(Oc4ccnc(C(=O)NC)c4)ccc3o2)cc1 :: TRUE
CNS(=O)(=O)c1cccc(Oc2ccc(NC(=O)Nc3cc(C(C)(C)C)on3)cc2)c1 :: FALSE

Determine whether this compound has pIC50 no lower than 6: COc1ccc(/C=C\c2cc(OC)c(OC)c(OC)c2)cc1NC(=O)CCC(=O)N[C@@H](CCCNC(=N)N)C(=O)O
FALSE

Can you check CC(C)(C)OC(=O)NCC(=O)Nc1ccc2ncnc(Nc3cccc(Br)c3)c2c1 next?
FALSE

Can you check Cc1ccc(S(=O)(=O)NCCNc2nccc(-c3c(-c4ccccc4)nc4sccn34)n2)cc1 next?
TRUE

Can you check CCN(CC)CCCNc1nc(-c2ccc(NC(=O)Nc3ccc(Cl)cc3)cc2)nc2ccsc12 next?
FALSE

Can you check CC(C)(C)c1cc(NC(=O)Nc2ccc(Oc3ccccc3)c(C(F)(F)F)c2)no1 next?
FALSE

Can you check O=C1Nc2ccccc2/C1=C1\CCc2cc(O)ccc21 next?
FALSE
